Catalogue of compounds with associated melting point

Cn1c(-c2ccccc2)nc2cc(Br)cnc21; 214 to 215 °C
Brc1cnc2nc(-c3ccc(C4=NCCN4)cc3)[nH]c2c1.Cl; > 300 °C
Cn1c(-c2ccc(C#N)cc2)nc2cccnc21; 183 to 185 °C

IN: Please look up its melting point: `CC(C)NC(=N)c1ccc(-c2nc3ncccc3[nH]2)cc1.Cl`
OUT: 293 to 295 °C

IN: Would you mind doing `Brc1cnc2nc(-c3ccc(C4=NCCCN4)cc3)[nH]c2c1.Cl` as well?
OUT: > 300 °C

IN: Would you mind doing c1ccc(-c2nc3ncccc3[nH]2)cc1 [Compound 5, 2-Phenyl-1H-imidazo[4:5-b]pyridine] as well?
OUT: 290 to 291 °C

###

assay: in vitro; details: human
quantity: CC50

Reference set, count: 10
CC(C)NC(=N)c1ccc(-c2nc3ncccc3[nH]2)cc1.Cl; 81.1 µM
Cn1c(-c2ccc(C#N)cc2)nc2cccnc21; > 100 µM
Cl.c1cnc2nc(-c3ccc(C4=NCCCN4)cc3)[nH]c2c1; > 100 µM
N#Cc1ccc(-c2nc3ncccc3[nH]2)cc1; > 100 µM
Brc1cnc2nc(-c3ccccc3)[nH]c2c1; > 100 µM
CCC(CC)COC(=O)[C@H](C)N[P@](=O)(OC[C@H]1O[C@@](C#N)(c2ccc3c(N)ncnn23)[C@H](O)[C@@H]1O)Oc1ccccc1 [Remdesivir, remdesivir, reference compound]; > 10 µM
Cn1c(-c2ccc(C#N)cc2)nc2cc(Br)cnc21; > 100 µM
Cl.N=C(N)c1ccc(-c2nc3ncc(Br)cc3[nH]2)cc1; > 100 µM
N#Cc1ccc(-c2nc3ncc(Br)cc3[nH]2)cc1; > 100 µM
Cn1c(-c2ccccc2)nc2cc(Br)cnc21; > 100 µM

From here, focus on the item given below.
IN: Please look up its CC50: `Cl.N=C(N)c1ccc(-c2nc3ncccc3[nH]2)cc1`
OUT: > 100 µM

###

tested on: DND-41 acute lymphoblastic leukemia cells; assay: In vitro antiproliferative activity, MTS proliferation assay; assay type: cell-based; conditions: Homo sapiens, DND41, 72 h
pIC50: −log10 of the molar value.
quantity: pIC50

Cl.c1cnc2nc(-c3ccc(C4=NCCN4)cc3)[nH]c2c1; 4.31
Cl.N=C(N)c1ccc(-c2nc3ncc(Br)cc3[nH]2)cc1; < 4.00
Cl.c1cnc2nc(-c3ccc(C4=NCCCN4)cc3)[nH]c2c1; < 4.00
Cn1c(-c2ccccc2)nc2cc(Br)cnc21; < 4.00

IN: API: value(readout=pIC50, system=DND-41 acute lymphoblastic leukemia cells) for record `Cl.N=C(N)c1ccc(-c2nc3ncccc3[nH]2)cc1`
OUT: < 4.00

IN: Would you mind doing `CC(C)NC(=N)c1ccc(-c2nc3ncccc3[nH]2)cc1.Cl` as well?
OUT: < 4.00

IN: Would you mind doing c1ccc(-c2nc3ncccc3[nH]2)cc1 [Compound 5, 2-Phenyl-1H-imidazo[4:5-b]pyridine] as well?
OUT: < 4.00

IN: Would you mind doing `Cn1c(-c2ccc(C#N)cc2)nc2cc(Br)cnc21` as well?
OUT: < 4.00

IN: Would you mind doing `Brc1cnc2nc(-c3ccc(C4=NCCCN4)cc3)[nH]c2c1.Cl` as well?
OUT: 4.77

###

Catalogue of molecules with associated melting point

Reference set, count: 3
Cl.N=C(N)c1ccc(-c2nc3ncc(Br)cc3[nH]2)cc1; > 300 °C
N#Cc1ccc(-c2nc3ncc(Br)cc3[nH]2)cc1; > 300 °C
Cn1c(-c2ccc(C#N)cc2)nc2cc(Br)cnc21; 234 to 235 °C

IN: Please look up its melting point: `Cl.c1cnc2nc(-c3ccc(C4=NCCN4)cc3)[nH]c2c1`
OUT: > 300 °C
